IC50 by entry:
- Tested on: Setaria cervi
- Assay text: Antifilarial activity against microfilaria of Setaria cervi assessed as inhibition of relative movability after 24 hrs by microscopy
- Format: functional, organism-based
- Condition parameters: Setaria cervi, 24 h
Supply the numeric figure in nM, leaving out any unit text.

Read the entry `CC(=O)OC[C@H]1O[C@@H](CC(=O)/C=C/c2ccc(C(F)(F)F)cc2)[C@H](OC(C)=O)[C@@H](OC(C)=O)[C@@H]1OC(C)=O` and write its reported IC50. 6.89

---

Parameter: IC50. Scope: all listed entries.
- Tested on: Setaria cervi
- Assay text: Antifilarial activity against microfilaria of Setaria cervi assessed as inhibition of relative movability after 24 hrs by microscopy
- Format: functional, organism-based
- Condition parameters: Setaria cervi, 24 h
Report only the number, with the unit nM understood.

CC(=O)OC[C@H]1O[C@@H](CC(=O)/C=C/c2ccc(C)cc2)[C@H](OC(C)=O)[C@@H](OC(C)=O)[C@@H]1OC(C)=O
13.6
COc1ccccc1/C=C/C(=O)C[C@@H]1O[C@H](COC(C)=O)[C@@H](OC(C)=O)[C@H](OC(C)=O)[C@H]1OC(C)=O
68.9
CC(=O)OC[C@H]1O[C@@H](CC(=O)/C=C/c2ccc(OC(C)=O)cc2)[C@H](OC(C)=O)[C@@H](OC(C)=O)[C@@H]1OC(C)=O
119
CC(=O)OC[C@H]1O[C@@H](CC(=O)/C=C/c2ccc(Cl)c(Cl)c2)[C@H](OC(C)=O)[C@@H](OC(C)=O)[C@@H]1OC(C)=O
6.97
CCOc1ccc(/C=C/C(=O)C[C@@H]2O[C@H](COC(C)=O)[C@@H](OC(C)=O)[C@H](OC(C)=O)[C@H]2OC(C)=O)cc1
51.4
COc1ccc(/C=C/C(=O)C[C@@H]2O[C@H](COC(C)=O)[C@@H](OC(C)=O)[C@H](OC(C)=O)[C@H]2OC(C)=O)cc1
41.6

Moving on to the next molecule.
Give a short answer stating reported IC50 for `COc1ccc(/C=C/C(=O)C[C@@H]2O[C@H](COC(C)=O)[C@@H](OC(C)=O)[C@H](OC(C)=O)[C@H]2OC(C)=O)cc1OCc1ccccc1` . 250

---

- Test system: Setaria cervi
- Assay text: Antifilarial activity against microfilaria of Setaria cervi assessed as inhibition of relative movability after 24 hrs by microscopy
- Type: functional, organism-based
- Condition parameters: Setaria cervi, 24 h
Let's look at some molecules and their measured pIC50.
API: returns pIC50 as number; meaning -log10 of concentration in mol/L.

COc1cc(/C=C/C(=O)C[C@@H]2O[C@H](COC(C)=O)[C@@H](OC(C)=O)[C@H](OC(C)=O)[C@H]2OC(C)=O)cc(OC)c1OC
7.12
CC(=O)OC[C@H]1O[C@@H](CC(=O)/C=C/c2ccco2)[C@H](OC(C)=O)[C@@H](OC(C)=O)[C@@H]1OC(C)=O
7.33
CC(=O)OC[C@H]1O[C@@H](CC(=O)/C=C/c2cccs2)[C@H](OC(C)=O)[C@@H](OC(C)=O)[C@@H]1OC(C)=O
7.33
CC(=O)OC[C@H]1O[C@@H](CC(=O)/C=C/c2cccc3ccccc23)[C@H](OC(C)=O)[C@@H](OC(C)=O)[C@@H]1OC(C)=O
7.87
CC(=O)OC[C@H]1O[C@@H](CC(=O)/C=C/c2cccc([N+](=O)[O-])c2)[C@H](OC(C)=O)[C@@H](OC(C)=O)[C@@H]1OC(C)=O
7.95

API: the following record is the query input.
Tell me measured pIC50 for `CC(=O)OC[C@H]1O[C@@H](CC(=O)/C=C/c2ccc(Cl)cc2)[C@H](OC(C)=O)[C@@H](OC(C)=O)[C@@H]1OC(C)=O` please. 7.57

---

- System: Setaria cervi
- Assay text: Antifilarial activity against microfilaria of Setaria cervi assessed as inhibition of relative movability after 24 hrs by microscopy
- Assay type: functional, organism-based
- Condition parameters: Setaria cervi, 24 h
Measured metric: pIC50
Answer as the number alone; pIC50 is minus log10 of concentration in mol/L.

Reference set, count: 3
CC(=O)OC[C@H]1O[C@@H](CC(=O)/C=C/c2cccnc2)[C@H](OC(C)=O)[C@@H](OC(C)=O)[C@@H]1OC(C)=O
8.12
CC(=O)OC[C@H]1O[C@@H](CC(=O)/C=C/c2cc(Cl)cc(Cl)c2)[C@H](OC(C)=O)[C@@H](OC(C)=O)[C@@H]1OC(C)=O
8.12
COc1ccc(/C=C/C(=O)C[C@@H]2O[C@H](COC(C)=O)[C@@H](OC(C)=O)[C@H](OC(C)=O)[C@H]2OC(C)=O)cc1OC
7.09

Answer with reported pIC50 of `CC(=O)OC[C@H]1O[C@@H](CC(=O)/C=C/c2ccc(OCc3ccccc3)cc2)[C@H](OC(C)=O)[C@@H](OC(C)=O)[C@@H]1OC(C)=O` 6.46

State its pIC50 for this compound: `CC(=O)OC[C@H]1O[C@@H](CC(=O)/C=C/c2ccc([N+](=O)[O-])s2)[C@H](OC(C)=O)[C@@H](OC(C)=O)[C@@H]1OC(C)=O` 7.67

Output measured pIC50 for this item: `COc1cc(/C=C/C(=O)C[C@@H]2O[C@H](COC(C)=O)[C@@H](OC(C)=O)[C@H](OC(C)=O)[C@H]2OC(C)=O)ccc1O` 6.73

---

- Assay text: Cytotoxicity against human normal kidney epithelial cells after 24 hrs by MTT assay
- Assay type: cell-based, Epithelial cell
Listing: CC50 at 24 h of selected molecules
Answer in nM, number only, no unit symbol.

Below are worked cases with known answers.
CC(=O)OC[C@H]1O[C@@H](CC(=O)/C=C/c2ccc(Cl)c(Cl)c2)[C@H](OC(C)=O)[C@@H](OC(C)=O)[C@@H]1OC(C)=O
25.8
CC(=O)OC[C@H]1O[C@@H](CC(=O)/C=C/c2cc(Cl)cc(Cl)c2)[C@H](OC(C)=O)[C@@H](OC(C)=O)[C@@H]1OC(C)=O
32.9
CC(=O)OC[C@H]1O[C@@H](CC(=O)/C=C/c2cccc([N+](=O)[O-])c2)[C@H](OC(C)=O)[C@@H](OC(C)=O)[C@@H]1OC(C)=O
15.4

Identify measured CC50 at 24 h associated with `CC(=O)OC[C@H]1O[C@@H](CC(=O)/C=C/c2cccnc2)[C@H](OC(C)=O)[C@@H](OC(C)=O)[C@@H]1OC(C)=O` 4.17

Consider the molecule `CC(=O)OC[C@H]1O[C@@H](CC(=O)/C=C/c2ccc(C(F)(F)F)cc2)[C@H](OC(C)=O)[C@@H](OC(C)=O)[C@@H]1OC(C)=O` and give its recorded CC50 at 24 h. 102

Kindly indicate its recorded CC50 at 24 h. Item: `CC(=O)OC[C@H]1O[C@@H](CC(=O)/C=C/c2ccc(C)cc2)[C@H](OC(C)=O)[C@@H](OC(C)=O)[C@@H]1OC(C)=O` 3.18

---

- System: Setaria cervi
- Assay text: Antifilarial activity against microfilaria of Setaria cervi assessed as inhibition of relative movability after 24 hrs by microscopy
- Format: functional, organism-based
- Condition parameters: Setaria cervi, 24 h
Measured metric: IC50 (nM)
Answer format: numeric, nM implied, no suffix.

These solved cases illustrate the format of a correct answer.
CC(=O)OC[C@H]1O[C@@H](CC(=O)/C=C/c2cc(Cl)cc(Cl)c2O)[C@H](OC(C)=O)[C@@H](OC(C)=O)[C@@H]1OC(C)=O
17.7
CC(=O)OC[C@H]1O[C@@H](CC(=O)/C=C/c2ccccc2)[C@H](OC(C)=O)[C@@H](OC(C)=O)[C@@H]1OC(C)=O
38.8
CC(=O)OC[C@H]1O[C@@H](CC(=O)/C=C/c2ccc([N+](=O)[O-])cc2)[C@H](OC(C)=O)[C@@H](OC(C)=O)[C@@H]1OC(C)=O
23.9

Moving on to the next compound.
Give IC50 for this entry on Setaria cervi: `CC(=O)OC[C@H]1O[C@@H](CC(=O)/C=C/c2ccc(N(C)C)cc2)[C@H](OC(C)=O)[C@@H](OC(C)=O)[C@@H]1OC(C)=O` 226
